assay: self-splicing fitness, log relative to wild type (ln ratio); higher = more splicing; Tetrahymena group I intron in knt gene, E. coli kanamycin selection, DiMSum; sequences stand for … in CUCUCU…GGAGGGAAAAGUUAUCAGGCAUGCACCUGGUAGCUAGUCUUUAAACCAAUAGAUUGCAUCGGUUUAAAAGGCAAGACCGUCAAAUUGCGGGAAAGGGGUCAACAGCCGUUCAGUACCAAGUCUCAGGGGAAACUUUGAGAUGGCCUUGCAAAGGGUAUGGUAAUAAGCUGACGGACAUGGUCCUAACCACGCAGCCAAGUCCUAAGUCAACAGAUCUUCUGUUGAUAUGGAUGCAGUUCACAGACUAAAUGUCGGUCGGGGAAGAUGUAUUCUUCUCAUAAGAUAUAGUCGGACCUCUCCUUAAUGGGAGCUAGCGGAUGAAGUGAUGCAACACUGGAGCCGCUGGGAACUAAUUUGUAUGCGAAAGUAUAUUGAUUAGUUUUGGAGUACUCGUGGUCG; conditions: 30 °C;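 note: selection with 25 µg/mL kanamycin versus none on LB agar overnight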
Where self-splicing fitness (ln) equals or exceeds -3, the correct label is MET; where it does not, the label is NOT MET.

- Sequence Record: "UAUGAGCAAUAUUACGUGUA"
  Label Class: "MET"
- Sequence Record: "UUCCAGCAAUAUUACGCCAU"
  Label Class: "NOT MET"
- Sequence Record: "UUUCAGCAAUAUUACGUCGC"
  Label Class: "NOT MET"
- Sequence Record: "GGCUAGCAAUAUUACGGGCG"
  Label Class: "MET"
- Sequence Record: "UAGCAGCAAUAUUACGGACG"
  Label Class: "MET"
- Sequence Record: "GGUUAGCAAUAUUACGGAUA"
  Label Class: "MET"
- Sequence Record: "CUGGAGCAAUAUUACGUCGC"
  Label Class: "MET"
- Sequence Record: "CUGUAGCAAUAUUACGUCAA"
  Label Class: "MET"
- Sequence Record: "GAUUAGCAAUAUUACGAGGG"
  Label Class: "MET"
- Sequence Record: "AUCGAGCAAUAUUACGGACG"
  Label Class: "MET"
- Sequence Record: "CUGUAGCAAUAUUACGAGGU"
  Label Class: "NOT MET"
- Sequence Record: "GUACAGCAAUAUUACGCUGG"
  Label Class: "MET"
- Sequence Record: "GUCAAGCAAUAUUACGAGAA"
  Label Class: "NOT MET"
- Sequence Record: "UCUAAGCAAUAUUACGCCCG"
  Label Class: "MET"
- Sequence Record: "GACGAGCAAUAUUACGCAAC"
  Label Class: "MET"
- Sequence Record: "AUCUAGCAAUAUUACGAAUG"
  Label Class: "MET"
- Sequence Record: "UCAAAGCAAUAUUACGAUUC"
  Label Class: "NOT MET"
- Sequence Record: "UAAGAGCAAUAUUACGGGUG"
  Label Class: "NOT MET"
- Sequence Record: "AAUAAGCAAUAUUACGACUA"
  Label Class: "MET"
- Sequence Record: "UGCAAGCAAUAUUACGUUCU"
  Label Class: "MET"
- Sequence Record: "UAAAAGCAAUAUUACGUUAC"
  Label Class: "NOT MET"
- Sequence Record: "ACGCAGCAAUAUUACGCUGA"
  Label Class: "MET"
- Sequence Record: "GAGGAGCAAUAUUACGCAAC"
  Label Class: "MET"
- Sequence Record: "CACAAGCAAUAUUACGAAUU"
  Label Class: "NOT MET"
- Sequence Record: "UCUUAGCAAUAUUACGUUUC"
  Label Class: "NOT MET"
- Sequence Record: "CAGAAGCAAUAUUACGAAGA"
  Label Class: "NOT MET"
- Sequence Record: "AUAUAGCAAUAUUACGUUGC"
  Label Class: "MET"
- Sequence Record: "AGAAAGCAAUAUUACGAAGG"
  Label Class: "NOT MET"
- Sequence Record: "AGUGAGCAAUAUUACGUAAA"
  Label Class: "NOT MET"
- Sequence Record: "UGUAAGCAAUAUUACGAUCG"
  Label Class: "MET"
- Sequence Record: "CUUAAGCAAUAUUACGAGGU"
  Label Class: "MET"
- Sequence Record: "UUUAAGCAAUAUUACGUGGU"
  Label Class: "MET"
- Sequence Record: "GCUUAGCAAUAUUACGCUCA"
  Label Class: "MET"
- Sequence Record: "GACUAGCAAUAUUACGUUAU"
  Label Class: "MET"
- Sequence Record: "UCCAAGCAAUAUUACGCGAU"
  Label Class: "NOT MET"
- Sequence Record: "GACAAGCAAUAUUACGCCCA"
  Label Class: "MET"
- Sequence Record: "GGACAGCAAUAUUACGAUGC"
  Label Class: "MET"
- Sequence Record: "UCUUAGCAAUAUUACGGACG"
  Label Class: "MET"
- Sequence Record: "AAGAAGCAAUAUUACGGUAG"
  Label Class: "NOT MET"
- Sequence Record: "CGCAAGCAAUAUUACGCCCU"
  Label Class: "MET"
- Sequence Record: "GCAAAGCAAUAUUACGGCGG"
  Label Class: "MET"
- Sequence Record: "UAACAGCAAUAUUACGCUAU"
  Label Class: "MET"
- Sequence Record: "AGUAAGCAAUAUUACGAAGA"
  Label Class: "MET"
- Sequence Record: "AGUCAGCAAUAUUACGGCGU"
  Label Class: "MET"
- Sequence Record: "AUAGAGCAAUAUUACGGAUU"
  Label Class: "MET"
- Sequence Record: "CCGUAGCAAUAUUACGUUCU"
  Label Class: "NOT MET"
- Sequence Record: "ACGUAGCAAUAUUACGUUUU"
  Label Class: "MET"
- Sequence Record: "ACCUAGCAAUAUUACGAAAU"
  Label Class: "MET"
- Sequence Record: "ACAUAGCAAUAUUACGUACU"
  Label Class: "MET"
- Sequence Record: "AAUCAGCAAUAUUACGAAUG"
  Label Class: "MET"
- Sequence Record: "UACUAGCAAUAUUACGGGCA"
  Label Class: "MET"
